From: PubChem BioAssay AID588590

biological target: DNA polymerase iota (Homo sapiens) (UniProt Q9UNA4); assay: qHTS for Inhibitors of Polymerase Iota; conditions: Pol iota fluorescent replication assay, 10 min; series mostly up to 115 µM
Sequence (Q9UNA4 whole entry, looked up): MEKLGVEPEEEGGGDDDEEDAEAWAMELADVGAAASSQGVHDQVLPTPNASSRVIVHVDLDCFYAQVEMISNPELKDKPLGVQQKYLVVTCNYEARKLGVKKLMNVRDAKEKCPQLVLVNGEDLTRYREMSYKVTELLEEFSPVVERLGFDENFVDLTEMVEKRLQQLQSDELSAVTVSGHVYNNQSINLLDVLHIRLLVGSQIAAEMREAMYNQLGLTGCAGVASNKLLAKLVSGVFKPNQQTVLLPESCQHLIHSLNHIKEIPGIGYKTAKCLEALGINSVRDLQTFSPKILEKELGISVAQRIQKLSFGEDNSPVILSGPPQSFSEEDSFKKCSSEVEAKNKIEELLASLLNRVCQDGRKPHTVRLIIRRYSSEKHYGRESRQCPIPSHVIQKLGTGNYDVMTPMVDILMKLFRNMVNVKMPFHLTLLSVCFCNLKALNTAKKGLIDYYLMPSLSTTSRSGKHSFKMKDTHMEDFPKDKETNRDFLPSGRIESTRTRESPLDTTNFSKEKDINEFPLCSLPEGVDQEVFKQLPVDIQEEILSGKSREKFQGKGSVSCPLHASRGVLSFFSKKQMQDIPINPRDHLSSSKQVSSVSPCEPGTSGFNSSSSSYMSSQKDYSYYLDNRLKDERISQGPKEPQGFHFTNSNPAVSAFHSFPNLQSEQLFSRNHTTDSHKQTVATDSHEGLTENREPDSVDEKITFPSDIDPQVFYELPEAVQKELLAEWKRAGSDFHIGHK
The whole screen tested about 390,000 compounds, of which about 4,000 (1%) were called active. Inconclusive results (about 7%) are left out. The call rests on the fitted dose curve; in most records, active means well fitted inhibition curve with a large enough effect; inconclusive means small, poorly fitted or top-dose-only effect, or another doubt; inactive means no such curve, though single readings can be large or run the other way. For the sample, actives were picked, then their nearest neighbours and some compounds at random.
A correct response names exactly one class from True (active), False (inactive)

Some solved cases for reference:
                                   compound  answer_label
0     CCCCCCCNc1ccc(/C=C/c2ccnc3ccccc23)cc1         False
1  COc1cc(N/C=C2\CC(=O)NC(C)=C2C#N)cc(OC)c1OC          True
2  Cc1ccc2ncc(C(=O)Nc3ccc(OC(F)(F)F)cc3)c(=O)n2c1         False
3  COC(=O)c1cc(NC(=O)c2cnc(SC)nc2-c2ccccc2)cc(C(=O)OC)c1         False
4  COc1cccc2c1cc1c(=O)n(CC(=O)N3CCN(c4cccc(Cl)c4)CC3)nc(C)n12         False

Then there is this compound:
I would be grateful if you could indicate the recorded call for Cc1ccccc1NC(=O)Cn1c(=O)n(Cc2ccco2)c(=O)c2ccc(C(=O)NC3CCCC3)cc21 .
False
